Hello, the source for this data is ChEMBL document CHEMBL3045497, in case you need it.

assayProtocol: Inhibition of B-type Bemisia tabaci (sweet potato whitefly) esterase using 500 uM of 1-naphthyl butyrate as substrate after 10 min
outcomeMeasure: IC50 (µM)
Number only, in µM; omit the unit.

1) CCCCOCCOCCOCc1cc2c(cc1CCC)OCO2 [PIPERONYL BUTOXIDE]    4.7

--- query ---
Reported IC50 ( CCCCOCCOCCOCc1cc2c(cc1CCC)CCO2 ) = 6.5
